- Target entity: N-glycosylase/DNA lyase (Homo sapiens)
- Experimental context: Compound Concentration 10.0 uM, Hit No
- Description: Inhibition of OGG1 by quantifying inhibition of OGG1-mediated cleavage and dissociation of quenched duplex DNA oligonucleotides, measured as fluorescence at 594 nm. To generate a functional strand incision and increase turn-over this assay is coupled to APE1.
Entries and their inhibition

>  <Compound>
CC(=O)Nc1nc(CN2CCC[C@H](Cc3cc(C)nc(C)c3)C2)cs1

>  <Target entity>
N-glycosylase/DNA lyase (Homo sapiens)

>  <inhibition>
13.6%

$$$$
>  <Compound>
COc1cc(C(C)C)c(Oc2cnc(NC(CO)CO)nc2N)cc1I

>  <Target entity>
N-glycosylase/DNA lyase (Homo sapiens)

>  <inhibition>
-8.24%

$$$$
>  <Compound>
COc1cc(N(C)c2ccnc3ccc(C(F)(F)F)cc23)cc(OC)c1OC

>  <Target entity>
N-glycosylase/DNA lyase (Homo sapiens)

>  <inhibition>
1.25%

$$$$
>  <Compound>
COc1ccccc1N1CCN(C[C@@H](C(=O)NC(C)(C)C)c2ccccc2)CC1

>  <Target entity>
N-glycosylase/DNA lyase (Homo sapiens)

>  <inhibition>
-6.28%

$$$$
>  <Compound>
CC1(C)SSC(C)(C)[C@@H](NC(=O)[C@@H](N)Cc2ccc(O)cc2)C(=O)NCC(=O)N[C@@H](Cc2ccccc2)C(=O)N[C@H]1C(=O)O

>  <Target entity>
N-glycosylase/DNA lyase (Homo sapiens)

>  <inhibition>
-3.29%

$$$$
>  <Compound>
C/N=C(/NC#N)NCCSCc1csc(NC(=N)N)n1

>  <Target entity>
N-glycosylase/DNA lyase (Homo sapiens)

>  <inhibition>
-8.12%

$$$$
>  <Compound>
CCc1nc2c(o1)CC(c1ccc(C)cc1C)CC2=O (stereo not given)

>  <Target entity>
N-glycosylase/DNA lyase (Homo sapiens)

>  <inhibition>
-9.46%

$$$$
>  <Compound>
COc1cc2c(CCNC(C)=O)c[nH]c2cc1Cl

>  <Target entity>
N-glycosylase/DNA lyase (Homo sapiens)

>  <inhibition>
-6.18%

$$$$
>  <Compound>
Clc1ccc(C2CC3CCC2N3)cn1 (stereo not given)

>  <Target entity>
N-glycosylase/DNA lyase (Homo sapiens)

>  <inhibition>
-8.75%

$$$$
>  <Compound>
O=C(Nc1cc(C(F)(F)F)cc(C(F)(F)F)c1)c1cc(Cl)ccc1O

>  <Target entity>
N-glycosylase/DNA lyase (Homo sapiens)

>  <inhibition>
28.6%

$$$$
>  <Compound>
N/C(=N\C(=O)c1nc(Cl)c(N)nc1N)NCc1ccccc1

>  <Target entity>
N-glycosylase/DNA lyase (Homo sapiens)

>  <inhibition>
16.3%

$$$$
>  <Compound>
Cc1cnc(-c2cc(Cl)ccc2F)cc1-n1c(=O)n(CC(N)=O)c2cnccc21

>  <Target entity>
N-glycosylase/DNA lyase (Homo sapiens)

>  <inhibition>
1.02%

$$$$
>  <Compound>
c1ccc(C2CCN(c3cnc4c(N5CCOCC5)nccn34)CC2)cc1

>  <Target entity>
N-glycosylase/DNA lyase (Homo sapiens)

>  <inhibition>
16.2%

$$$$
>  <Compound>
COC(c1ccccc1)(c1ccccc1)[C@H](Oc1nc(C)cc(C)n1)C(=O)O

>  <Target entity>
N-glycosylase/DNA lyase (Homo sapiens)

>  <inhibition>
1.14%

$$$$
>  <Compound>
COc1ccc(COc2ccc(Cc3cnc(N)nc3N)cc2OC)cc1

>  <Target entity>
N-glycosylase/DNA lyase (Homo sapiens)

>  <inhibition>
6.26%

$$$$
>  <Compound>
C[C@H](c1ccc(F)cc1)N(Cc1cccc(C(=O)O)c1)C(=O)c1cnc2ccccc2c1

>  <Target entity>
N-glycosylase/DNA lyase (Homo sapiens)

>  <inhibition>
-1.34%

$$$$
>  <Compound>
O=C(N[C@H]1CCCCC/C=C\C2C[C@@]2(C(=O)O)NC(=O)[C@@H]2C[C@@H](Oc3ccncc3)CN2C1=O)OC1CCCC1 (stereo not given in full)

>  <Target entity>
N-glycosylase/DNA lyase (Homo sapiens)

>  <inhibition>
25.2%

$$$$
>  <Compound>
CCc1ccc(N(CC(C)C)S(=O)(=O)c2ccc(OCC3CCOCC3)c(CO)c2)cc1

>  <Target entity>
N-glycosylase/DNA lyase (Homo sapiens)

>  <inhibition>
9.77%

$$$$
>  <Compound>
Cc1cccc([C@H]2CC[C@@H](N3CCN(c4cccnc4)CC3)CC2)c1 (mixture of isomers)

>  <Target entity>
N-glycosylase/DNA lyase (Homo sapiens)

>  <inhibition>
4.72%

$$$$
>  <Compound>
O=C(NC[C@@H]1[C@H]2CN(C(=O)OCc3cc(C(F)(F)F)cc(C(F)(F)F)c3)C[C@@H]12)c1ccc2[nH]nnc2c1

>  <Target entity>
N-glycosylase/DNA lyase (Homo sapiens)

>  <inhibition>
19.9%

$$$$
>  <Compound>
COC(=O)c1sccc1S(=O)(=O)Nc1ccc(Nc2ccccc2)cc1OC

>  <Target entity>
N-glycosylase/DNA lyase (Homo sapiens)

>  <inhibition>
3.38%

$$$$
>  <Compound>
CN1CCC(C(=O)c2cccc(NC(=O)c3c(F)cc(F)cc3F)n2)CC1

>  <Target entity>
N-glycosylase/DNA lyase (Homo sapiens)

>  <inhibition>
-2.69%

$$$$
>  <Compound>
COc1ccccc1-c1cc(Nc2cccc(CS(N)(=O)=O)c2)ncn1

>  <Target entity>
N-glycosylase/DNA lyase (Homo sapiens)

>  <inhibition>
3.23%

$$$$
>  <Compound>
N#CN1CC[C@@H](C(=O)Nc2nc3c(s2)CN(C(=O)CN=[N+]=[N-])CC3)C1

>  <Target entity>
N-glycosylase/DNA lyase (Homo sapiens)

>  <inhibition>
3.62%

$$$$
>  <Compound>
Cc1cccc(C2CN(C)CCc3c2cc(O)c(O)c3Cl)c1 (stereo not given)

>  <Target entity>
N-glycosylase/DNA lyase (Homo sapiens)

>  <inhibition>
-8.27%

$$$$
>  <Compound>
CC(C)(C)NC[C@H](O)COc1nsnc1N1CCOCC1

>  <Target entity>
N-glycosylase/DNA lyase (Homo sapiens)

>  <inhibition>
-3.29%

$$$$
>  <Compound>
CCCCCNC(=O)N1CCC(CN(Cc2ccc(Cl)cc2)Cc2ccc([N+](=O)[O-])s2)C1 (stereo not given)

>  <Target entity>
N-glycosylase/DNA lyase (Homo sapiens)

>  <inhibition>
13.5%

$$$$
>  <Compound>
Cc1cn([C@H](C)CC#N)c(=O)c2cc(Cn3nc(C(F)F)cc3Cl)nn12

>  <Target entity>
N-glycosylase/DNA lyase (Homo sapiens)

>  <inhibition>
-5.53%

$$$$
>  <Compound>
NC1(c2ccc(-c3nc4ccn5c(=O)[nH]nc5c4cc3-c3ccccc3)cc2)CCC1

>  <Target entity>
N-glycosylase/DNA lyase (Homo sapiens)

>  <inhibition>
10.8%

$$$$
>  <Compound>
COc1cccc([C@@H](C)NCCCc2ccccc2Cl)c1

>  <Target entity>
N-glycosylase/DNA lyase (Homo sapiens)

>  <inhibition>
-9.29%

$$$$
>  <Compound>
Cc1ccc(-c2ccc3c(ccc4sc5c(c43)NCC(C)NC5=O)n2)cn1 (stereo not given)

>  <Target entity>
N-glycosylase/DNA lyase (Homo sapiens)

>  <inhibition>
-7.16%

$$$$
>  <Compound>
COc1cc(C(=O)N(CCCc2ccccc2)Cc2ccc(CC(=O)O)cc2)cc(OC)c1C

>  <Target entity>
N-glycosylase/DNA lyase (Homo sapiens)

>  <inhibition>
-6.84%

$$$$
>  <Compound>
Cc1c(N2CCCC2)nc2ccc(Br)cc2c1C(=O)NC[C@H](CCC(=O)O)c1ccccc1Cl

>  <Target entity>
N-glycosylase/DNA lyase (Homo sapiens)

>  <inhibition>
31.5%

$$$$
>  <Compound>
CNCc1ccccc1-c1csc([C@@H](C)Nc2nc(C)nc3cc(OC)c(OC)cc23)c1

>  <Target entity>
N-glycosylase/DNA lyase (Homo sapiens)

>  <inhibition>
16.5%

$$$$
>  <Compound>
CC(C)c1c(NC(=O)Nc2ccc(Cl)cc2)c(=O)n(-c2ccccc2)n1C

>  <Target entity>
N-glycosylase/DNA lyase (Homo sapiens)

>  <inhibition>
-7%

$$$$
>  <Compound>
COc1cc(Nc2ccnc3ccc(Br)cc23)cc(OC)c1OC

>  <Target entity>
N-glycosylase/DNA lyase (Homo sapiens)

>  <inhibition>
14.7%

$$$$
>  <Compound>
COc1ccc(S(=O)(=O)c2cc(OC)ccc2S(=O)(=O)c2ccc([C@H](C)NS(C)(=O)=O)cc2)cc1

>  <Target entity>
N-glycosylase/DNA lyase (Homo sapiens)

>  <inhibition>
-5.59%

$$$$
>  <Compound>
Cc1c(C(=O)Nc2cccc(C(F)(F)F)c2)cc(-c2ccccc2)n1CCCN1CCOCC1

>  <Target entity>
N-glycosylase/DNA lyase (Homo sapiens)

>  <inhibition>
-6.32%

$$$$
>  <Compound>
O=C(O)c1ccccc1S(=O)(=O)NCCCCN1C(=O)c2cccc3cccc(c23)C1=O

>  <Target entity>
N-glycosylase/DNA lyase (Homo sapiens)

>  <inhibition>
2.55%

$$$$
>  <Compound>
O=C(NCc1ccc(F)cc1)N1CCN2C(=O)OC(c3ccccc3)(c3ccccc3)C2C1 (stereo not given)

>  <Target entity>
N-glycosylase/DNA lyase (Homo sapiens);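 note: OGG1 cleavage of a quenched duplex DNA oligonucleotide, coupled to APE1 for strand incision, read as fluorescence at 594 nm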

>  <inhibition>
1.66%

$$$$
